System: HCC1937
Experiment Notes: normalised response (% of control), CellTiter-Glo; higher = more viable cells (100 = DMSO, 0 = benzethonium chloride kill control)
Setup Conditions: incubation time: 72 h
Value Type: normalised response (%)
Expressed in %, but write only the number.

CC(C)(C)NC(=O)[C@H]1CC[C@H]2[C@@H]3CC[C@H]4NC(=O)C=C[C@]4(C)[C@H]3CC[C@]12C [Finasteride] (100 nM) :: 95.7
C=CCn1c(=O)c2cnc(Nc3ccc(N4CCN(C)CC4)cc3)nc2n1-c1cccc(C(C)(C)O)n1 [MK1775] (100 nM) :: 90.7

Problem: Endpoint output: normalised response of Cc1nc(C(=O)NCC(=O)O)c(O)c2ccc(Oc3ccccc3)cc12 [FG-4592] (100 nM) . Value?
Solution: 98

Problem: Consider the molecule CC(=O)[C@]1(O)Cc2c(O)c3c(c(O)c2[C@@H](O[C@H]2C[C@H](N)[C@H](O)[C@H](C)O2)C1)C(=O)c1ccccc1C3=O [Idarubicin] (10 nM) and give its measured normalised response.
Solution: 99.2

Problem: Given CC1(C)CCC(c2ccc(Cl)cc2)=C(CN2CCN(c3ccc(C(=O)NS(=O)(=O)c4ccc(N[C@H](CCN5CCOCC5)CSc5ccccc5)c(S(=O)(=O)C(F)(F)F)c4)cc3)CC2)C1 [Navitoclax] (100 nM) , state its recorded normalised response.
Solution: 87.9

Problem: Requested field: normalised response. Item: O=C(CCCCCCC(=O)Nc1ccccc1)NO [Vorinostat] (100 nM)
Solution: 97.7

Problem: Please give the measured normalised response for this molecule: O=C(O)CNC(=O)c1c(O)c2ccccc2n(Cc2ccccc2)c1=O [IOX-2] (500 nM)
Solution: 97.2

Problem: Quick check: normalised response of CC(O)(CS(=O)(=O)c1ccc(F)cc1)C(=O)Nc1ccc(C#N)c(C(F)(F)F)c1 (stereo unspecified) [Bicalutamide] (100 nM) ?
Solution: 100

Problem: Name the recorded normalised response for CC1(COc2ccc3c(c2)ncn3-c2ccc3cccc(N4CCC(N)CC4)c3n2)COC1 [Crenolanib] (100 nM) .
Solution: 102

Problem: Fill in the blank: the reported normalised response of CC(C)C[C@H](NC(=O)[C@@H](COC(C)(C)C)NC(=O)[C@H](Cc1ccc(O)cc1)NC(=O)[C@H](CO)NC(=O)[C@H](Cc1c[nH]c2ccccc12)NC(=O)[C@H](Cc1cnc[nH]1)NC(=O)[C@@H]1CCC(=O)N1)C(=O)N[C@@H](CCCNC(=N)N)C(=O)N1CCC[C@H]1C(=O)NNC(N)=O [Goserelin] (100 nM) is ____.
Solution: 95.8
